System: Prevotella oris
MEASUREMENT NOTES: Antibacterial activity against Prevotella oris by CLSI M11-A6 agar dilution method
Assay type: functional
CONDITION SET: Segatella oris
REPORTED ENDPOINT: MIC90 (µg/mL)
Express the result in µg/mL but write the number alone.

Prompt: Entry under review: CCCCCCCCCCNCCN[C@@]1(C)C[C@H](O[C@H]2[C@H](Oc3c4cc5cc3Oc3ccc(cc3Cl)[C@@H](O)[C@@H](NC(=O)[C@@H](CC(C)C)NC)C(=O)N[C@@H](CC(N)=O)C(=O)N[C@H]5C(=O)N[C@H]3C(=O)N[C@H](C(=O)N[C@H](C(=O)O)c5cc(O)c(CNCP(=O)(O)O)c(O)c5-c5cc3ccc5O)[C@H](O)c3ccc(c(Cl)c3)O4)O[C@H](CO)[C@@H](O)[C@@H]2O)O[C@@H](C)[C@H]1O . Reported MIC90?
Completion: 64

Prompt: Entry under review: CC(=O)NC[C@H]1CN(c2ccc(N3CCOCC3)c(F)c2)C(=O)O1 . Reported MIC90?
Completion: 2

Prompt: Entry under review: Cc1ncc([N+](=O)[O-])n1CCO . Reported MIC90?
Completion: 1

----------
Exercise: for every item that follows, state its recorded MIC90.
Test system: Ruminococcus gnavus
MEASUREMENT NOTES: Antibacterial activity against Ruminococcus gnavus by CLSI M11-A6 agar dilution method
Type: functional
CONDITION SET: Mediterraneibacter gnavus

Prompt: Entry under review: CN[C@H](CC(C)C)C(=O)N[C@H]1C(=O)N[C@@H](CC(N)=O)C(=O)N[C@H]2C(=O)N[C@H]3C(=O)N[C@H](C(=O)N[C@H](C(=O)O)c4cc(O)cc(O)c4-c4cc3ccc4O)[C@H](O)c3ccc(c(Cl)c3)Oc3cc2cc(c3O[C@@H]2O[C@H](CO)[C@@H](O)[C@H](O)[C@H]2O[C@H]2C[C@](C)(N)[C@H](O)[C@H](C)O2)Oc2ccc(cc2Cl)[C@H]1O . Reported MIC90?
Completion: 1 mg/L

Prompt: Entry under review: CCC[C@@H]1C[C@@H](C(=O)N[C@@H]([C@H]2O[C@H](SC)[C@H](O)[C@@H](O)[C@H]2O)[C@H](C)Cl)N(C)C1 . Reported MIC90?
Completion: 0.25 mg/L

----------
Tested on: Bacteroides fragilis
MEASUREMENT NOTES: Antibacterial activity against Bacteroides fragilis by CLSI M11-A6 agar dilution method
Assay type: functional
REPORTED ENDPOINT: MIC50

Prompt: Entry under review: CCCCCCCCCC(=O)N[C@@H](Cc1c[nH]c2ccccc12)C(=O)N[C@H](CC(N)=O)C(=O)N[C@@H](CC(=O)O)C(=O)N[C@@H]1C(=O)NCC(=O)N[C@@H](CCCN)C(=O)N[C@@H](CC(=O)O)C(=O)N[C@H](C)C(=O)N[C@@H](CC(=O)O)C(=O)NCC(=O)N[C@H](CO)C(=O)N[C@@H]([C@H](C)CC(=O)O)C(=O)N[C@@H](CC(=O)c2ccccc2N)C(=O)O[C@@H]1C . Reported MIC50?
Completion: > 128 µg/mL

----------
Test system: Clostridium
MEASUREMENT NOTES: Antibacterial activity against Clostridium hypermegas by CLSI M11-A6 agar dilution method
Format: functional
REPORTED ENDPOINT: MIC90 (µg/mL)
Express the result in µg/mL but write the number alone.

Prompt: Entry under review: CN[C@H](CC(C)C)C(=O)N[C@H]1C(=O)N[C@@H](CC(N)=O)C(=O)N[C@H]2C(=O)N[C@H]3C(=O)N[C@H](C(=O)N[C@H](C(=O)O)c4cc(O)cc(O)c4-c4cc3ccc4O)[C@H](O)c3ccc(c(Cl)c3)Oc3cc2cc(c3O[C@@H]2O[C@H](CO)[C@@H](O)[C@H](O)[C@H]2O[C@H]2C[C@](C)(N)[C@H](O)[C@H](C)O2)Oc2ccc(cc2Cl)[C@H]1O . Reported MIC90?
Completion: 4

Prompt: Entry under review: CCCCCCCCCCNCCN[C@@]1(C)C[C@H](O[C@H]2[C@H](Oc3c4cc5cc3Oc3ccc(cc3Cl)[C@@H](O)[C@@H](NC(=O)[C@@H](CC(C)C)NC)C(=O)N[C@@H](CC(N)=O)C(=O)N[C@H]5C(=O)N[C@H]3C(=O)N[C@H](C(=O)N[C@H](C(=O)O)c5cc(O)c(CNCP(=O)(O)O)c(O)c5-c5cc3ccc5O)[C@H](O)c3ccc(c(Cl)c3)O4)O[C@H](CO)[C@@H](O)[C@@H]2O)O[C@@H](C)[C@H]1O . Reported MIC90?
Completion: 0.25

Prompt: Entry under review: Cc1ncc([N+](=O)[O-])n1CCO . Reported MIC90?
Completion: 1
